# Test system: S. typhimurium/E. coli reverse mutation, colony counts
# protocol notes: Bacterial reverse mutation test (aka Ames test) summary data;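 further: His-minus Salmonella and trp-minus E. coli WP2 uvrA pKM101 with or without liver S9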
Records with an inconclusive call do not appear. Activity calls are given as the source filed them. How the calls were made is not given here.
Classes used: active, inactive

- C=C(C)c1ccccc1: inactive
- Cc1cc(O)c2c(c1)C(=O)c1cccc(O)c1C2=O: active
- OC(c1ccc(Cl)cc1)(c1ccc(Cl)cc1)c1ccc(Cl)cc1: inactive
- CC(O)C#N (configuration not stated): active
- CCNC(=S)NCC: inactive
- COCCOC(=O)c1ccccc1C(=O)OCCOC: active
- O=[N+]([O-])c1c(O)c(Cl)cc(Cl)c1Cl: inactive
- CC(C)S: inactive
- C=CCN(CC=C)CC=C: inactive
- Cc1cc(-c2ccc(N=Nc3c(S(=O)(=O)O)cc4cc(S(=O)(=O)O)cc(N)c4c3O)c(C)c2)ccc1N=Nc1c(S(=O)(=O)O)cc2cc(S(=O)(=O)O)cc(N)c2c1O: active
- CC(C)COC(=O)COc1cc(Cl)c(Cl)cc1Cl: inactive
- C=C(C)C(=O)OCCCCCCCCCC: inactive
- CCN(CC)C(=S)S: inactive
- C1CC2OC2CC1C1CO1 (configuration not stated): active
- CC=C(Cl)Cl: inactive
- CC(CCl)OC(C)CCl (configuration not stated): active
- C=CC(=O)OCCOCCOCCOCCOC(=O)C=C: inactive
- O=C1c2cccc(O)c2C(=O)c2c(O)cccc21: active
- F: inactive
- COC(=O)[C@H]1[C@H]2C[C@@H]3c4[nH]c5cc(OC)ccc5c4CCN3C[C@H]2C[C@@H](OC(=O)c2cc(OC)c(OC)c(OC)c2)[C@@H]1OC: inactive
- CC=CC=O: active
- COCCO: inactive
